# System: MDA-N
# ASSAY: NCI tumour cell line growth inhibition, 48 h
Active and inactive are the calls of the source. No stated cut-off is given here; in the data, active = GI50 up to about 1.1 µM and inactive = higher.

| COMPOUND STRING | TARGET UNDER TEST | GI50 |
| --- | --- | --- |
| O=c1oc2ccccc2c(Nc2ccc3c(c2)S(=O)(=O)c2ccccc2O3)c1[N+](=O)[O-] | MDA-N | 22.5 µM (inactive) |
| O=C(NCc1ccc(Cl)cc1)c1cc2sccc2nc1C(F)(F)F | MDA-N | > 100 µM (inactive) |
| CCOC(=O)c1c(N2CCOCC2)[nH]c(=O)c(C(c2c(O)c(C(=O)OCC)c(N3CCOCC3)[nH]c2=O)C(C)C)c1O | MDA-N | > 100 µM (inactive) |
| O=C(NN=C1CCCCC1)Nc1ccccc1Cl | MDA-N | 18.1 µM (inactive) |
| COc1ccc(Nc2nn3c(=O)c4c(C)c(C)sc4nc3s2)cc1 | MDA-N | 45.6 µM (inactive) |
